target-entity: ERBB4 (human)
protocol: radiometric filter-binding kinase assay
cond: compound 1.0 µM
reported-endpoint: residual activity (%)

Answered examples (5):
{"molecule": "NC(=O)c1c(NC(=O)C2CC2)sc2c1CCCC2", "target-entity": "ERBB4 (human)", "residual activity (%)": 106}
{"molecule": "O=C(NOCC(O)CO)c1ccc(F)c(F)c1Nc1ccc(I)cc1Cl (stereo not given)", "target-entity": "ERBB4 (human)", "residual activity (%)": 86}
{"molecule": "NC(=O)c1ccc(-c2ccc(Oc3cncc4sc(-c5nn[nH]n5)cc34)cc2)cc1", "target-entity": "ERBB4 (human)", "residual activity (%)": 88}
{"molecule": "COc1cc(O)c2c(c1)/C=C/C[C@H](O)[C@H](O)C(=O)/C=C\\C[C@H](C)OC2=O", "target-entity": "ERBB4 (human)", "residual activity (%)": 95}
{"molecule": "NC1(c2ccc(-c3nc4ccn5c(=O)[nH]nc5c4cc3-c3ccccc3)cc2)CCC1", "target-entity": "ERBB4 (human)", "residual activity (%)": 95}

a = CC1=C(CO)C(=O)O[C@@H]([C@@H](C)[C@H]2CC[C@H]3[C@@H]4C[C@H]5O[C@]56[C@@H](O)C=CC(=O)[C@]6(C)C4CC[C@]23C)C1 (stereo not given in full)
b = Oc1ccc2ccccc2c1SSc1c(O)ccc2ccccc12
**Query** Between a and b , whose recorded residual activity is greater? Let me know the label of the one you choose.
**Result** a

A = CN(C)C/C=C/C(=O)Nc1cccc(C(=O)Nc2ccc(Nc3nccc(-c4cccnc4)n3)cc2)c1
B = COc1ccc(-n2ncc3cnc(Nc4cc(OC)c(OC)c(OCCCN5CCN(C)CC5)c4)nc32)cc1
C = COc1cc(C(=O)N2CCOCC2)c(F)cc1Nc1ncc(C(F)(F)F)c(NC2CC2)n1
**Query** Hi! Can you put these in order of residual activity, lowest number first? Returns: the labels listed in the requested order.
**Result** B, C, A
(B: 17%, C: 74%, A: 106%)
